measurement.target: OTU domain-containing protein 3 (Homo sapiens) (UniProt Q5T2D3)
Sequence (Q5T2D3 whole entry, looked up, the tested form may be a part): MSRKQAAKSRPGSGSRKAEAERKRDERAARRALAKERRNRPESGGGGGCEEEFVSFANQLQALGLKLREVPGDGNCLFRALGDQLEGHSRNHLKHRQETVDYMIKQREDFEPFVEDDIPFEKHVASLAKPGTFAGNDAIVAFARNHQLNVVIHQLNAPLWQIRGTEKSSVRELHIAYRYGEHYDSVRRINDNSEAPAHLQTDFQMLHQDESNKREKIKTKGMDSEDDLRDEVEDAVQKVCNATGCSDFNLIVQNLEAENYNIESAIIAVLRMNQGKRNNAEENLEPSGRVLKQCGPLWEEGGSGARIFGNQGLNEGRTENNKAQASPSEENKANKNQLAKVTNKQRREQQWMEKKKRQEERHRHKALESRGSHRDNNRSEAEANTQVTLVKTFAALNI
assay.explanation: Validation of screening hits, potency titration, in vitro enzymatic, OTU domain-containing protein 3 DUB inhibitors (AID 1645868)
assay.context: purified OTUD3, ubiquitin-rhodamine cleavage fluorescence, 2 h
The source made the active and inactive calls.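 How the source made its calls: active means maximal percent inhibition of the deubiquitinase OTUD3 of at least 30% across the tested doses; inactive means the rest.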
value.type: IC50

Some compounds with recorded IC50:
COc1ccccc1-c1nc2c3c(C)c(C)n(Cc4cccnc4)c3ncn2n1 > 50 µM (inactive)
CC(=O)CN1CC2(CCN(Cc3ccc(F)cc3)CC2)COc2ccccc2S1(=O)=O > 50 µM (inactive)
CC(=O)N1CCc2cc(CNC(=O)Nc3cc(C)ccc3C)ccc21 > 50 µM (inactive)
CO[C@H]1[C@@H](O)[C@H](C)O[C@H](O[C@H]2[C@H](Oc3cccc4c(O)c5c(=O)oc6ccc(C)c7c(=O)oc(c34)c5c67)O[C@H](C)[C@H](O)[C@@H]2O)[C@@H]1O > 50 µM (inactive)

Please look at this compound and report its IC50: `O=C(Nc1ccc2sccc2c1)c1ccc(F)cc1`
> 50 µM (inactive)
